These data points were gathered from ChEMBL document CHEMBL2396621.

Test system: UACC-62
test: Cytotoxicity against human UACC62 cells assessed as growth inhibition at 10 uM after 48 hrs by coulter counter analysis
Type: functional
details: UACC-62, 48 h, read-out: GI
measured-metric: inhibition of growth at 10 µM

CCOc1ccc(NC(=O)CSc2nc3ccccc3c(=O)n2CCc2ccccc2)cc1 ... < 10%
O=C(CSc1nc2ccccc2c(=O)n1CCc1ccccc1)Nc1cc(Cl)ccc1C(=O)O ... < 10%

Please find the next molecule below.
Qu. Entry `NC(=O)CSc1nc2ccccc2c(=O)n1CCc1ccccc1` needs its inhibition of growth at 10 µM filled in; supply it.
Ans. < 10%

====

Assign inhibition of growth at 10 µM to each entry below.
Test system: MDA-MB-231
test: Cytotoxicity against human MDA-MB-231 cells assessed as growth inhibition at 10 uM after 48 hrs by coulter counter analysis
Type: functional
details: MDA-MB-231, 48 h, read-out: GI

// worked examples, inhibition of growth at 10 µM included
O=C(CSc1nc2ccccc2c(=O)n1CCc1ccccc1)Nc1cc(Cl)ccc1C(=O)O ... < 10%
COc1cc(NC(=O)CSc2nc3ccccc3c(=O)n2CCc2ccccc2)cc(OC)c1OC ... > 100%

As a next step, examine the compound that follows.
Qu. Identify the reported inhibition of growth at 10 µM for the following entry. `NC(=O)CSc1nc2ccccc2c(=O)n1CCc1ccccc1`
Ans. < 10%

====

Record form. Attribute: inhibition of growth at 10 µM. Fill in for each entry.
Test system: U-251
test: Cytotoxicity against human U251 cells assessed as growth inhibition at 10 uM after 48 hrs by coulter counter analysis
Type: functional
details: U-251, 48 h, read-out: GI

Sample records with inhibition of growth at 10 µM:
O=C(CSc1nc2ccccc2c(=O)n1CCc1ccccc1)Nc1ccccc1 ... < 10%
O=C(CSc1nc2ccccc2c(=O)n1CCc1ccccc1)Nc1cc(Cl)ccc1C(=O)O ... < 10%

Qu. Fill in reported inhibition of growth at 10 µM for this entry: `COc1cc(NC(=O)CSc2nc3ccccc3c(=O)n2CCc2ccccc2)cc(OC)c1OC`
Ans. > 100%

====

Tested on: ACHN
test: Cytotoxicity against human ACHN cells assessed as growth inhibition at 10 uM after 48 hrs by coulter counter analysis
Type: functional
details: read-out: GI
measured-metric: inhibition of growth at 10 µM (%)
One number for each entry, in %.

Below, 2 compounds whose answers are already recorded.
CC(=O)c1ccc(NC(=O)CSc2nc3ccccc3c(=O)n2CCc2ccccc2)cc1 ... 30
CCOC(=O)c1ccc(NC(=O)CSc2nc3ccccc3c(=O)n2CCc2ccccc2)cc1 ... 21

Let us examine a further case.
Qu. Respond only with inhibition of growth at 10 µM recorded for `O=C(CSc1nc2ccccc2c(=O)n1CCc1ccccc1)Nc1ccc(Cl)cc1`
Ans. 22

====

Tested on: TK-10
test: Cytotoxicity against human TK10 cells assessed as growth inhibition at 10 uM after 48 hrs by coulter counter analysis
Type: functional
details: TK-10, 48 h, read-out: GI
measured-metric: inhibition of growth at 10 µM

Provide inhibition of growth at 10 µM for all items below, preserving their order.
1. COc1cc(OC(=O)CSc2nc3ccccc3c(=O)n2CCc2ccccc2)cc(OC)c1OC
2. NC(=O)CSc1nc2ccccc2c(=O)n1CCc1ccccc1
3. O=C(CSc1nc2ccccc2c(=O)n1CCc1ccccc1)NCc1ccccc1
4. O=C(CSc1nc2ccccc2c(=O)n1CCc1ccccc1)Oc1ccc(Cl)cc1
5. CCOC(=O)c1ccc(NC(=O)CSc2nc3ccccc3c(=O)n2CCc2ccccc2)cc1
6. CCOc1ccc(NC(=O)CSc2nc3ccccc3c(=O)n2CCc2ccccc2)cc1

Ans.
1: < 10%; 2: < 10%; 3: 20%; 4: < 10%; 5: < 10%; 6: < 10%

====

test: Cytotoxicity against human EKVX cells assessed as growth inhibition at 10 uM after 48 hrs by coulter counter analysis
Type: functional
details: read-out: GI
Lab note: compare inhibition of growth at 10 µM against 20%. Equal or greater, write Y. Smaller, write N.

Below, 2 compounds whose answers are already recorded.
COc1ccc(NC(=O)CSc2nc3ccccc3c(=O)n2CCc2ccccc2)cc1 ... Y
COc1cc(NC(=O)CCSc2nc3ccccc3c(=O)n2CCc2ccccc2)cc(OC)c1OC ... Y

Qu. Hi, just wondering whether `O=C(CSc1nc2ccccc2c(=O)n1CCc1ccccc1)Nc1ccc(Cl)cc1` shows inhibition of growth at 10 µM of 20% or higher.
Ans. Y

Qu. Determine whether measured inhibition of growth at 10 µM meets or exceeds 20% for `NC(=O)CSc1nc2ccccc2c(=O)n1CCc1ccccc1`
Ans. N

Qu. Determine whether this compound has inhibition of growth at 10 µM no lower than 20%: `CC(=O)c1ccc(NC(=O)CSc2nc3ccccc3c(=O)n2CCc2ccccc2)cc1`
Ans. Y
